Reported pEC50 values for a set of compounds
EXPERIMENTAL_TARGET: UniProt P35346
Sequence (P35346 whole entry): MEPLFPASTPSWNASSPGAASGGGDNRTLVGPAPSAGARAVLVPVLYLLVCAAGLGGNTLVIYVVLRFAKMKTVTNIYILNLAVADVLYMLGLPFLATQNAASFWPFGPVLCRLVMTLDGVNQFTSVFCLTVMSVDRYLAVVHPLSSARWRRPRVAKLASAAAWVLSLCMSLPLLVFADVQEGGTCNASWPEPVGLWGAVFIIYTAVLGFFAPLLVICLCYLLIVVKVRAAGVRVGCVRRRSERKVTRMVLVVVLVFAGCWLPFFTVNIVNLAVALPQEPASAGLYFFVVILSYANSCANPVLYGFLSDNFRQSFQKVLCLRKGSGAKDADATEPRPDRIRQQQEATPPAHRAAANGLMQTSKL
RUN_DESCRIPTION: cAMP functional agonist assay, CHO cells expressing SSTR5
EXPERIMENTAL_CONTEXT: CHO cells stably expressing SSTR5, cAMP
pEC50: −log10 of the molar value.
PROPERTY: pEC50

In [3]: df
Out[3]:
                                    compound        result
 0  CN(Cc1c(-c2cc(F)cc(Cl)c2)cnc2ncn(-c3cccc(O)c3)c(=O)c12)C[C@@H]1CCCN1  5.00 to 7.00
 1  Cc1cccc(-c2cnc3ncn(-c4cccc(O)c4)c(=O)c3c2CN(C)CC2CCCCN2)c1 (centres unmarked)        < 5.00
 2  Cc1cc(C)cc(-c2cnc3ncn(-c4cccc(C(N)=O)c4)c(=O)c3c2CN(C)C[C@@H]2CCCN2)c1        < 5.00
 3  Cc1cc(Cl)cc(-c2cnc3ncn(-c4cccc(O)c4)c(=O)c3c2CN(C)C[C@@H]2CCCN2)c1  5.00 to 7.00
 4  Cc1cc(Cl)cc(-c2cnc3nc(C(C)C)n(-c4cccc(O)c4)c(=O)c3c2CN(C)C[C@@H]2CCCN2)c1  5.00 to 7.00
 5  CN(Cc1c(-c2cc(Cl)cc(CO)c2)cnc2ncn(-c3cccc(O)c3)c(=O)c12)C[C@@H]1CCCN1  5.00 to 7.00
 6  CN(Cc1c(-c2cccc(CCO)c2)cnc2ncn(-c3cccc(O)c3)c(=O)c12)C[C@@H]1CCCN1        < 5.00
 7  Cc1cc(C)c(F)c(-c2cnc3ncn(-c4cccc(O)c4)c(=O)c3c2CN(C)CC2CCCCN2)c1 (centres unmarked)  5.00 to 7.00
 8  Cc1cc(C)cc(-c2cnc3ncn(-c4cccc(O)c4)c(=O)c3c2CN(C)C[C@H]2CCCCN2)c1        < 5.00
 9  Cc1cc(C)cc(-c2cnc3ncn(-c4cccc(O)c4)c(=O)c3c2CN(C)C[C@H](C)N)c1        < 5.00
10  Cc1cc(Cl)cc(-c2cnc3ncn(-c4cc(F)cc(C(N)=O)c4)c(=O)c3c2CN(C)C[C@@H]2CCCN2)c1        < 5.00
